target of assay: M-phase inducer phosphatase 3 (Homo sapiens) (UniProt P30307)
Sequence (P30307 whole entry, the tested form may be a part): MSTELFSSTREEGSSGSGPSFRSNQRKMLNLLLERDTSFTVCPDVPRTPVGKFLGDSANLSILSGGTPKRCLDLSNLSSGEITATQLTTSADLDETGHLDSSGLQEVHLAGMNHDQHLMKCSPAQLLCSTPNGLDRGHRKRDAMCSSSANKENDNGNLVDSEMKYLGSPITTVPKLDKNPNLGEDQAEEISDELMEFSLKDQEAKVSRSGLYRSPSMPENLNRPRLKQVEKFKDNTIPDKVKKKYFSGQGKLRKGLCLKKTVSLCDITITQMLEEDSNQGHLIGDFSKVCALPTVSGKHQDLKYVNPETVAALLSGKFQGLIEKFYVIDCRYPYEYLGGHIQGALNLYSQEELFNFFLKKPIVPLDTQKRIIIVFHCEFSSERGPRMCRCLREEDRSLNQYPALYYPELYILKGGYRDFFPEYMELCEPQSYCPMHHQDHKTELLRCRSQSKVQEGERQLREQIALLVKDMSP
protocol: Inhibition of recombinant phosphatase activity of Cdc25C catalytic domain expressed in Escherichia coli BL21(DE3) using OMFP as substrate at 100 uM after 15 mins by fluorimetric assay
Measured inhibition of individual entries
Express the reported value numerically, then name its unit.

Some solved entries appear below for comparison.
molecule: CC1=NN(c2ccc(S(=O)(=O)O)cc2)C(=O)/C1=C/c1ccc(Cl)cc1
target of assay: M-phase inducer phosphatase 3 (Homo sapiens) (UniProt P30307)
inhibition: 54%

molecule: COc1ccc(Cc2ccc3nc(O)cc(C)c3c2)cc1S(=O)(=O)O
target of assay: M-phase inducer phosphatase 3 (Homo sapiens) (UniProt P30307)
inhibition: 55%

molecule: CC(C)(Oc1ccc(-c2cccc3ccccc23)cc1)C(=O)O
target of assay: M-phase inducer phosphatase 3 (Homo sapiens) (UniProt P30307)
inhibition: 50%

molecule: O=S(=O)(O)c1ccc(-c2nnc(-c3ccccn3)nc2-c2ccc(S(=O)(=O)O)o2)o1
target of assay: M-phase inducer phosphatase 3 (Homo sapiens) (UniProt P30307)
inhibition: 35%

# get_value(readout= inhibition, system= M-phase inducer phosphatase 3 (Homo sapiens) (UniProt P30307)) for CC1C2C=CC1C(c1c3ccc(=O)c(O)c-3oc3c(O)c(O)ccc13)C2C(=O)O (stereo not given) 98%

Same again, this time with O=C(O)c1ccccc1-c1ccccc1C(=O)Nc1ccc2c(c1)nc(O)c1ccccc12 48%

Same again, this time with Cn1c(COc2ccccc2C(=O)O)nc2ccccc21 35%

Same again, this time with Nc1ccc(-c2ccc(Nc3cc(S(=O)(=O)O)c(N)c4c3C(=O)c3ccccc3C4=O)cc2)c(S(=O)(=O)O)c1 49%

Same again, this time with Sc1ccc2ccccc2c1CNCc1ccccc1 53%

Same again, this time with O=C(Nc1ccc2ncccc2c1)Nc1ccc2ncccc2c1 48%

Same again, this time with CN(CCC(=O)O)C1=Nc2ccc(Cl)cc2C(c2ccccc2)=[N+]([O-])C1 48%

Same again, this time with O=C(O)c1ccc(C(=O)c2ccccc2C(=O)O)cc1C(=O)O 63%

###

Measured pIC50 of individual entries
target of assay: UniProt:P30305
protocol: Inhibition of recombinant phosphatase activity of Cdc25B catalytic domain expressed in Escherichia coli BL21(DE3) using OMFP as substrate by spectrofluorimetric analysis
Schema: pIC50 number; meaning minus log10 of the concentration expressed in molar units.

Some solved entries appear below for comparison.
smiles str: Nc1ccc(C(=O)O)cc1S(=O)(=O)c1cc(C(=O)O)ccc1N
measure name: pIC50
measured value: 4.70
//
smiles str: O=C1C=C(Nc2nc(C(=O)O)cc(=O)[nH]2)c2ccccc2C1=O
measure name: pIC50
measured value: 5.00
//
smiles str: COc1ccc(Cc2ccc3[nH]c(=O)cc(C)c3c2)cc1S(=O)(=O)O
measure name: pIC50
measured value: 3.88

Can you look up the measured pIC50 of O=C(O)c1ccccc1C(=O)c1ccc(-c2ccccc2)cc1 for me? 4.64

Same again, this time with CNc1ccc(C(=O)c2ccccc2C(=O)O)cc1[N+](=O)[O-] 5.10

Same again, this time with O=S(=O)(O)c1ccc(-c2nnc(-c3ccccn3)nc2-c2ccc(S(=O)(=O)O)o2)o1 3.76

Same again, this time with O=C1C=C(Nc2cccc(C(=O)O)c2)c2ccccc2C1=O 5.38

Same again, this time with Nc1ccc(Cc2ccc(N)c(C(=O)O)c2)cc1C(=O)O 4.62

Same again, this time with O=C(O)c1ccc(C(=O)c2ccccc2C(=O)O)cc1C(=O)O 4.76

###

target of assay: M-phase inducer phosphatase 2 (Homo sapiens)
protocol: Inhibition of recombinant phosphatase activity of Cdc25B catalytic domain expressed in Escherichia coli BL21(DE3) using OMFP as substrate at 100 uM after 15 mins by fluorimetric assay
measure name: inhibition (%)
Express your answer in %, writing the number without its unit.

# get_value(readout= inhibition, system= M-phase inducer phosphatase 2 (Homo sapiens)) for CN(CCC(=O)O)C1=Nc2ccc(Cl)cc2C(c2ccccc2)=[N+]([O-])C1 43

Same again, this time with O=S(=O)(O)c1ccc(-c2nnc(-c3ccccn3)nc2-c2ccc(S(=O)(=O)O)o2)o1 53

###

Measured pKi of individual entries
target of assay: M-phase inducer phosphatase 2 (Homo sapiens, UniProt P30305)
protocol: Competitive inhibition of recombinant phosphatase activity of Cdc25B catalytic domain expressed in Escherichia coli BL21(DE3) using OMFP as substrate by Lineweaver-Burk plot analysis
Schema: pKi number; meaning minus log10 of the concentration expressed in molar units.

Some solved entries appear below for comparison.
smiles str: COc1ccc(Cc2ccc3[nH]c(=O)cc(C)c3c2)cc1S(=O)(=O)O
target of assay: M-phase inducer phosphatase 2 (Homo sapiens, UniProt P30305)
pKi: 4.08
//
smiles str: O=C(O)c1ccc(C(=O)c2ccccc2C(=O)O)cc1C(=O)O
target of assay: M-phase inducer phosphatase 2 (Homo sapiens, UniProt P30305)
pKi: 5.28

Please find the next compound below.
# get_value(readout= pKi, system= M-phase inducer phosphatase 2 (Homo sapiens, UniProt P30305)) for O=S(=O)(O)c1ccc(-c2nnc(-c3ccccn3)nc2-c2ccc(S(=O)(=O)O)o2)o1 3.80

###

target of assay: M-phase inducer phosphatase 2 (Homo sapiens) (UniProt P30305)
Sequence (whole entry): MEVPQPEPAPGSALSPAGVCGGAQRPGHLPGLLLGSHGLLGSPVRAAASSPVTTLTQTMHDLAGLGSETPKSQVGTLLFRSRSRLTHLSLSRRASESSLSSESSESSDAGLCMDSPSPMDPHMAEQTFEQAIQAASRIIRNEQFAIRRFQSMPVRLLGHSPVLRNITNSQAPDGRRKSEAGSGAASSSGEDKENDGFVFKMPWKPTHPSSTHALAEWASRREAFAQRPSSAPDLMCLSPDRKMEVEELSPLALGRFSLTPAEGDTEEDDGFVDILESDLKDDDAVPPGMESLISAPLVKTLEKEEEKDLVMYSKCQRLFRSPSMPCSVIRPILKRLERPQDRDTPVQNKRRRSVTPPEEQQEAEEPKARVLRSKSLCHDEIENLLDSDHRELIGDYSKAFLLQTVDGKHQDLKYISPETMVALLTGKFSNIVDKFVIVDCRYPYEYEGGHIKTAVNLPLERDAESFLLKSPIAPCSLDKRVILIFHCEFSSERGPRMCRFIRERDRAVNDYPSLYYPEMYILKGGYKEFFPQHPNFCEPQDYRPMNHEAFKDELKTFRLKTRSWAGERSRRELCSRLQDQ
protocol: Inhibition of recombinant phosphatase activity of Cdc25B catalytic domain expressed in Escherichia coli BL21(DE3) using OMFP as substrate at 50 uM by spectrofluorimetric analysis
Consider the reported inhibition of an entry and match it to a band in low (below 20%), intermediate (20% to below 50%), high (50% or more)

smiles str: O=C(O)c1ccccc1C(=O)c1ccc(Cl)c([N+](=O)[O-])c1
group label: low

smiles str: Nc1ccc(C(=O)O)cc1S(=O)(=O)c1cc(C(=O)O)ccc1N
group label: high

smiles str: O=C(O)c1cc(C(=O)C(=O)c2cc(C(=O)O)c(O)c3ccccc23)c2ccccc2c1O
group label: intermediate

smiles str: CNc1ccc(C(=O)c2ccccc2C(=O)O)cc1[N+](=O)[O-]
group label: high

smiles str: O=C(O)c1ccc(C(=O)c2ccccc2C(=O)O)cc1
group label: low

Entry Nc1ccc(Cc2ccc(N)c(C(=O)O)c2)cc1C(=O)O belongs to which category? high

Same again, this time with O=C(O)c1ccccc1C(=O)c1cccc([N+](=O)[O-])c1 low

Same again, this time with O=C(O)c1cccc(F)c1C(=O)c1ccc2ccccc2c1 intermediate

Same again, this time with O=C(C(=O)c1ccc(O)c(O)c1)c1ccc(O)c(O)c1 intermediate

Same again, this time with O=C1C=C(Nc2nc(O)cc(C(=O)O)n2)c2ccccc2C1=O high

Same again, this time with O=C(O)c1ccccc1C(=O)c1cccc2ccccc12 intermediate

Same again, this time with O=C(O)c1ccccc1C(=O)c1ccc(O)c([N+](=O)[O-])c1 low

###

Measured inhibition of individual entries
target of assay: M-phase inducer phosphatase 1 (Homo sapiens)
protocol: Inhibition of recombinant phosphatase activity of Cdc25A catalytic domain expressed in Escherichia coli BL21(DE3) using OMFP as substrate at 100 uM after 15 mins by fluorimetric assay
Express your answer in %, writing the number without its unit.

compound: O=S(=O)(O)c1ccc(-c2nnc(-c3ccccn3)nc2-c2ccc(S(=O)(=O)O)o2)o1
unit symbol: %
measured value: 41

compound: COc1ccc(Cc2ccc3nc(O)cc(C)c3c2)cc1S(=O)(=O)O
unit symbol: %
measured value: 46

compound: CN(CCC(=O)O)C1=Nc2ccc(Cl)cc2C(c2ccccc2)=[N+]([O-])C1
unit symbol: %
measured value: 28

compound: Sc1ccc2ccccc2c1CNCc1ccccc1
unit symbol: %
measured value: 35

compound: NS(=O)(=O)c1cc2c(cc1Cl)N=C(CCC(=O)O)NS2(=O)=O
unit symbol: %
measured value: 21

Please find the next compound below.
Can you look up the measured inhibition of O=C(Nc1ccc2ncccc2c1)Nc1ccc2ncccc2c1 for me? 47
